# protocol: Ritonavir plasma exposure during 5-day 100 mg bid therapy
# Format: in vivo, human
# assay_conditions: human, plasma, oral, 100 mg, Cmax of ritonavir, remaining 4 days of 100 mg bid
property: Cmax

What does the record list as Cmax for "CC(C)c1nc(CN(C)C(=O)N[C@H](C(=O)N[C@@H](Cc2ccccc2)C[C@H](O)[C@H](Cc2ccccc2)NC(=O)OCc2cncs2)C(C)C)cs1" ?
1780 to 2110 ng/mL

----------
# protocol: Ritonavir plasma exposure during 5-day 100 mg bid therapy
# Format: in vivo, human
# assay_conditions: human, plasma, oral, 100 mg
property: AUC(0-t)

What does the record list as AUC(0-t) for "CC(C)c1nc(CN(C)C(=O)N[C@H](C(=O)N[C@@H](Cc2ccccc2)C[C@H](O)[C@H](Cc2ccccc2)NC(=O)OCc2cncs2)C(C)C)cs1" ?
4590 to 5330 ng·h/mL
